The following compounds are shown together with reported melting point values.

Example entries begin here.
-- ask Return reported melting point; argument: CNC(=S)C1(c2ccccn2)CCCO1 (stereo unspecified)
-- reply 115 °C

-- ask I am curious: what melting point value has been reported for CCN(CC)CCOc1ccc(Nc2ncc3c(n2)N(C)C(=O)N(c2ccccc2Br)C3)cc1 ?
-- reply 144 °C

-- ask If you can, please state the reported melting point value of COc1ccc(S(=O)(=O)Nc2ccc(COc3ccc4c(c3)CCC(CN(C)C)C4)cc2)cc1 (stereo unspecified) .
-- reply 137 to 140 °C

-- ask Fill in the blank: the reported melting point of Nc1cc(-c2ccccc2CCN2CCN(c3nccn3-c3ccccc3)CC2)ccn1 is ____.
-- reply 140 to 142 °C

-- ask So what does the record say about melting point for CCCCCCCOc1ccc(C(=O)O)cc1OCCCCCCC ?
-- reply 122 to 123 °C

Now consider a different compound.
-- ask Return reported melting point; argument: COC(=O)[C@H](Cc1cc(C)c(OCc2cccc3nc(-c4ccccc4)oc23)c(C)c1)NC(=O)OC(C)(C)C
-- reply 116 to 117 °C

###

result type: melting point

-- ask For COCCOc1cccc2c1C(=O)c1ccccc1C2=O , what is its reported melting point?
-- reply 146 to 147 °C

-- ask Request the reported melting point associated with N#CCC(=O)Nc1ccc(S(=O)C(F)(F)F)cc1 (centres undefined)
-- reply 164 to 165 °C

-- ask # get_value(readout='melting point', item= CCc1cccc(CC)c1NC(=O)NCC1(c2ccccc2)CC1 )
-- reply 166 to 168 °C

-- ask Request the reported melting point associated with CN(C)C1N(C(=O)c2ccccc2)N=C2c3ccccc3SN21 (centres undefined)
-- reply 155 to 156 °C

-- ask Give the measured melting point of COc1ccc([N+](=O)[O-])c2c1CC(C)(C)O2 .
-- reply 135 to 136 °C

-- ask Fill in the blank: the reported melting point of Nc1cc(N2CCNCC2)c(F)cc1[N+](=O)[O-] is ____.
-- reply 120 to 121 °C

-- ask Would you kindly share the measured melting point for COc1cccc2sc(C(=O)Nc3nnn[nH]3)c(OC(C)C)c12 ?
-- reply 233 °C

-- ask Reported melting point, compound Cn1cncc1C(O)(c1ccc(C#N)cc1)c1ccc2c(c1)c(-c1cccc(Cl)c1)cc(=O)n2C (centres undefined) : ____
-- reply 210 °C

Others:
-- ask May I ask what melting point has been recorded for CCOC(=O)C(=O)CC(=O)c1cn(Cc2c(F)cccc2F)c2ccccc2c1=O ?
-- reply 172 to 173 °C

-- ask Form field: reported melting point of Cc1ccc(S(=O)(=O)Oc2ccc(S(=O)(=O)C3=Cc4ccccc4C3)cc2)cc1
-- reply 174 °C

-- ask Need melting point of CC(C)(C)OC(=O)N1CCN(S(=O)(=O)c2ccc(N)c(Cl)c2)CC1 , thanks.
-- reply 243 to 244 °C

-- ask Sample CC(O)c1cccc(C=Cc2ccc3cc(F)ccc3n2)c1 (centres undefined) — what was its melting point?
-- reply 107 to 109 °C

-- ask Suppose we examine the compound CC(=O)Nc1ccc(Oc2c(-c3ccc(S(C)(=O)=O)cc3)cnn(CC(F)(F)F)c2=O)cc1 ; what melting point value has been reported?
-- reply 215 to 216 °C

-- ask So what does the record say about melting point for Cc1ccc([N+](=O)[O-])cc1Nc1nnn[nH]1 ?
-- reply 245 to 249 °C

Every entry's value here was drawn from a melting point compilation (Tetko et al.; mined from patent text by program, amines drawn as free bases though some values may be those of a salt).
